- Tested on: OVCAR-8 ovarian
- assay.text: NCI-60 one-dose screen, 48 h
- condition: 10 µM unless noted
This is part of a sample that, as a whole, favours compounds with a hit. Of some 83,000 tested, about 20% had one in any assay. Calls of active or inactive are those of the source. The calls were made as follows: active = growth percent below 10; inactive = the rest.
Valid outcomes are listed here; reply with one: y for active, n for inactive

Below are worked cases with known answers.
BrC1CC(Br)c2c1c1c(c3c2C(Br)CC3Br)C(Br)CC1Br (stereo not drawn) ... n
COc1ccc(Cl)cc1Nc1nc(C(F)(F)F)ccc1C(=O)N/N=C/c1c(Cl)cccc1Cl ... n
COC(=O)[C@H]1[C@H]2C[C@@H]3c4[nH]c5cc(OC)ccc5c4CCN3C[C@H]2C[C@@H](OC(=O)/C=C/c2cc(OC)c(OC)c(OC)c2)[C@@H]1OC ... n

State the result this test recorded for "O=C(COc1cccc(/C=C2\Cc3ccccc3C2=O)c1)c1ccc(Cl)cc1" .
n

And the next one, COc1ccc(C2=NN(C(C)=O)C(c3cccc(Nc4ccnc5cc(Cl)ccc45)c3)C2)cc1 (stereo not drawn) ?
n

And the next one, CO[C@H]1/C=C/O[C@@]2(C)Oc3c(C)c(O)c4c(O)c(c(/C=N/N5C(C)CN(Cc6ccc(C#N)cc6)CC5C)c(O)c4c3C2=O)NC(=O)/C(C)=C\C=C\[C@H](C)[C@H](O)[C@@H](C)[C@@H](O)[C@@H](C)[C@H](OC(C)=O)[C@@H]1C (stereo partly drawn) ?
n

And the next one, "Cc1cc2c(cc1C)[n+](Cc1ccc3ccccc3n1)cn2Cc1ccc2ccccc2n1" ?
y

And the next one, "C[C@@H]1C[C@@H]([C@@H](CC2CC(=O)NC(=O)C2)OC(=O)CC(=O)c2ccccc2)C(=O)[C@@H](C)C1" ?
n

* * *

Exercise: for every item that follows, state its recorded growth.
- Tested on: SW-620 colon
- assay.text: NCI-60 one-dose screen, 48 h (100 = growth as untreated, 0 = no growth, -100 = all killed)
- condition: 10 µM unless noted
Compounds without any hit were thinned out: in the full panel of roughly 83,000, 20% have a hit. Activity calls are given as the source filed them. How the source made its calls: active means growth percent below 10; inactive means the rest.

COc1ccc(CNC(=O)c2c(C)n([O-])c3cc(F)c(F)cc3[n+]2=O)cc1 ... 71.1% (inactive)
O[N+]1=CC=CCC1=S.On1ccccc1=S.[Zn] ... -77.2% (active)
O=c1ccn(C2CC=C(CO)O2)c(=O)[nH]1 (stereo unspecified) ... 103% (inactive)
CC1c2ccccc2-c2ccccc2N1C (stereo unspecified) ... 108% (inactive)
N#Cc1c(-c2ccccc2)cc(-c2ccccc2)n(CCC(=O)O)c1=O ... 37.3% (inactive)

Items follow; give growth for each.
1. COc1ccc(-c2cc(-c3cccnc3)nc3sc(C(=O)Nc4ccccc4)c(N)c23)cc1OC
2. COc1ccc2c(c1)sc1nc(-c3ccc(N(C)C)cc3)cn12
3. COc1ccc(OC)c(CCn2cncc2-c2c[nH]c3cc(Br)ccc23)c1
4. Cc1ccc(C(=O)Cc2ccccc2)c(O)c1
5. FC(F)(F)c1ccc(-c2cnc(-c3nn[nH]n3)nc2NC2CCCCCC2)cc1
6. O=C1Nc2ccc(Cl)cc2[C@@](C#CC2CC2)(C(F)(F)F)O1

1: 85.5% (inactive); 2: 104% (inactive); 3: 33.7% (inactive); 4: 105% (inactive); 5: 41.2% [50 µM] (inactive); 6: 107% (inactive)

* * *

- Tested on: RPMI-8226 leukemia
- assay.text: NCI-60 one-dose screen, 48 h (100 = growth as untreated, 0 = no growth, -100 = all killed)
- condition: 10 µM unless noted
Compounds without any hit were thinned out: in the full panel of roughly 83,000, 20% have a hit.
readout: growth (%)
One number for each entry, in %.

Items follow; give growth for each.
1. CCOC(=O)c1sc(NC(=O)COc2cccc(/C=C3\CCc4cc(OC)ccc4C3=O)c2)nc1C
2. CSc1nc(-c2ccc(O)cc2O)c2c(=O)[nH]c(Nc3ccc(S(=O)(=O)Nc4nc(C)cc(C)n4)cc3)nc2n1
3. COc1ccc(C(=O)COc2cccc(/C=C3\COc4ccc5ccccc5c4C3=O)c2)cc1
4. CCN(CC)CCNCC(=O)Oc1ccc(/C=C/C(=O)CC(=O)/C=C/c2ccc(OC(=O)CNCCN(CC)CC)c(OC)c2)cc1OC
5. COc1ccc(C(=O)/C=C/c2ccc(C)cc2)cc1OC

1. 12.6
2. 99.2
3. 2.86
4. -46.2
5. 18.9

Items follow; give growth for each.
1. NS(=O)(=O)c1ccc(-n2ncc3c(NC4CCCCC4)ncnc32)cc1
2. CCCCN1c2nc3ccccc3cc2Sc2cc3ccccc3nc21
3. CCOC(=O)C(C(=O)OCC)C1CCCCC1
4. Clc1ccc(C2c3ccccc3-c3nccn32)c(Cl)c1 (stereo not given)
5. CCSc1nc(-c2cccs2)n2nc(-c3ccco3)cc2n1

1: 91; 2: 78.4; 3: 101; 4: 26.5; 5: 53.9

* * *

- System: BT-549 breast
- assay.text: NCI-60 one-dose screen, 48 h
- condition: 10 µM unless noted
- Description: Growth inhibition of the BT-549 human tumor cell line is measured as a screen for anti-cancer activity. Cells are grown in 96 well plates and exposed to the test compound for 48 hours. Compounds are tested at a single concentration, which is 10^-5 M for most compounds. The reported endpoint is percent growth (GI% or GIPRCNT), where numbers from 0 - 100% represent growth inhibition, and numbers from -100% - 0 represent cell death. For example, a value of 40 represents 60% growth inhibition. […]
The panel holds about 83,000 compounds, 20% with a hit somewhere; the sample as a whole holds those more often. Calls of active or inactive are those of the source. How the source made its calls: active means growth percent below 10; inactive means the rest.
Valid outcomes are listed here; reply with one: yes for active, no for inactive

Below are worked cases with known answers.
O=Cc1ccccc1C(=O)O ... no
COc1cc(-c2nc3nc4sc(C)c(C)c4c(=O)n3[nH]2)cc(OC)c1OC ... no
CCN(CC)CCNCC(=O)Oc1ccc(/C=C/C(=O)CC(=O)/C=C/c2ccc(OC(=O)CNCCN(CC)CC)c(OC)c2)cc1OC ... yes
CNNc1ncnc2c1cnn2-c1ccc(S(N)(=O)=O)cc1 ... no
COc1cc(-c2n[nH]nc2-c2ccccn2)cc(OC)c1OC ... no

State the result this test recorded for Cc1ccccc1NC(=O)NC(CC(N)=O)c1ccc2c(c1)nc(-c1cccc(Oc3ccc(C(C)(C)C)cc3)c1)n2CCCN1CCCCC1C (centres undefined) .
no

And the next one, "Nc1nc(Nc2ccccc2SSc2ccccc2Nc2nc(N)nc(-c3cccc(Cl)c3)n2)nc(-c2cccc(Cl)c2)n1" ?
no

And the next one, "CN(C)CCCN=c1cc2c(=O)n(CCCN(C)C)c(=O)c3c(NCCCN(C)C)cc4c(O)n(CCCN(C)C)c(=O)c1c4c3-2" ?
no

And the next one, "O=C(N/N=C/c1cccc(O)c1O)c1ccccc1" ?
no

* * *

Exercise: for every item that follows, state its recorded growth.
- System: SW-620 colon
- assay.text: NCI-60 one-dose screen, 48 h (100 = growth as untreated, 0 = no growth, -100 = all killed)
- condition: 10 µM unless noted
Compounds without any hit were thinned out: in the full panel of roughly 83,000, 20% have a hit.
Numbers only, in %.

// solved cases for growth follow
COc1cc(/C=C/C(=O)C(C(=O)/C=C/c2ccc(OC(=O)CCNC34CC5CC(CC(C5)C3)C4)c(OC)c2)C(=O)CCNC23CC4CC(CC(C4)C2)C3)ccc1OC(=O)CCNC12CC3CC(CC(C3)C1)C2 (configuration not stated) ... -22.7
CCC(C)C1NC(=O)C(CCNCS(=O)(=O)O)NC(=O)C(NC(=O)C(CCNCS(=O)(=O)O)NC(=O)C(NC(=O)C(CCNCS(=O)(=O)O)NC(=O)CCCCC(C)C)C(C)O)CCNC(=O)C(C(C)O)NC(=O)C(CCNCS(=O)(=O)O)NC(=O)C(CCNCS(=O)(=O)O)NC(=O)C(C(C)CC)NC1=O (configuration not stated) ... 34.8
COc1cc(-c2nc3nc4sc(C)c(C)c4c(=O)n3[nH]2)cc(OC)c1OC ... 79.1
CC(=O)Nc1cc(C(c2ccccc2)c2ccccc2)cc(C(c2ccccc2)c2ccccc2)c1C ... 52
O=C(Nc1nn2c(-c3cc(C(F)(F)F)cc(C(F)(F)F)c3)nnc2s1)C1CCCC1 ... 15.5
Nc1ccc(N=Nc2ccccc2)cc1[N+](=O)[O-] ... 93.1

Record request: growth value, item "COc1cc(/C=C/C(=O)c2c(C)n([O-])c3ccc(Cl)cc3[n+]2=O)cc(OC)c1OC"
82.2

* * *

- System: HOP-92 NSCLC
- assay.text: NCI-60 one-dose screen, 48 h (100 = growth as untreated, 0 = no growth, -100 = all killed)
- condition: 10 µM unless noted
This is part of a sample that, as a whole, favours compounds with a hit. Of some 83,000 tested, about 20% had one in any assay. Calls of active or inactive are those of the source. The calls were made as follows: active = growth percent below 10; inactive = the rest.
readout: growth

Items follow; give growth for each.
1. CCCCCCCSc1ncnc2[nH]ncc12
2. COC(=O)N/N=C/c1coc2ccc(Cl)cc2c1=O
3. O=C1/C(=C/c2cccc(Cl)c2)CCc2ccccc21
4. O=C(c1ccccc1)c1ccc(Oc2ccc([N+](=O)[O-])cc2[N+](=O)[O-])cc1
5. COc1ccc(-n2cnc3cc(C(=O)N4CCCCC4)ccc32)cc1
6. CC(=O)c1ccc(NS(=O)(=O)c2ccc([N+](=O)[O-])cc2)cc1
7. CCCCCN(CCCCC)CCCNc1c2c(nc3ccc(Cl)cc13)CCCC2

-2.1% (active)
1.24% (active)
72.6% (inactive)
52.9% (inactive)
95.3% (inactive)
83.4% (inactive)
-6.23% (active)
